test system: COLO 205 colon; test: NCI-60 one-dose screen, 48 h; conditions: 10 µM unless noted
This is part of a sample that, as a whole, favours compounds with a hit. Of some 83,000 tested, about 20% had one in any assay. Active and inactive are the calls of the source. Rule for the calls: active = growth percent below 10; inactive = the rest.
Parameter call: string, one of 1.0 for active, 0.0 for inactive

## Input So what was the verdict on CC(=O)Nc1ccc(Sc2ccc([N+](=O)[O-])o2)cc1 in this test?
## Output 1.0

## Input So what was the verdict on CCOC(=O)c1c(Cl)c2c(n1Cc1cc(OC)cc(OC)c1)-c1oncc1CCC2 in this test?
## Output 1.0

## Input So what was the verdict on COc1cc(C(=O)/C=C/c2c(-c3cccs3)nc3sccn23)cc(OC)c1OC in this test?
## Output 1.0

## Input So what was the verdict on COc1cc(Cn2cc(F)c(=O)[nH]c2=O)cc(OC)c1 in this test?
## Output 0.0

## Input So what was the verdict on C[C@@H](Oc1cc(-c2cnn(C3CC4(CCNCC4)C3)c2)cnc1N)c1c(F)ccc(Cl)c1Cl in this test?
## Output 1.0

## Input So what was the verdict on O=C1c2ccccc2C(=O)c2c(Nc3ccc(CCO)cc3)ccc(O)c21 in this test?
## Output 0.0

## Input So what was the verdict on COC(=O)C1C2CC3c4[nH]c5cc(OC)ccc5c4CCN3CC2CC(OC2CCCCO2)C1OC (stereo not drawn) in this test?
## Output 0.0

## Input So what was the verdict on CC(=O)Nc1ccccc1-c1n[nH]c(=O)[nH]c1=O in this test?
## Output 0.0

## Input So what was the verdict on COc1ccc(C2OCC(C)(C)CO2)cc1OC in this test?
## Output 0.0

## Input So what was the verdict on Cc1nc2cc(Nc3nc(Nc4ccc(F)cc4)nc(-c4cccs4)n3)ccc2n1Cc1ccccc1 in this test?
## Output 0.0

## Input So what was the verdict on CCOc1ccc(-c2cnnn2-c2nonc2-n2cccc2)cc1 in this test?
## Output 1.0

## Input So what was the verdict on Cn1cc(C(=O)NCCC(=N)N)cc1NC(=O)CN=C(N)N in this test?
## Output 0.0

## Input So what was the verdict on Nc1nc(N)c(N=Nc2c(Br)cc(S(N)(=O)=O)cc2Br)c(N)n1 in this test?
## Output 0.0

---

Please go through the items and note down their growth.
system: SN12C renal; test: NCI-60 one-dose screen, 48 h (100 = growth as untreated, 0 = no growth, -100 = all killed); conditions: 10 µM unless noted
Compounds without any hit were thinned out: in the full panel of roughly 83,000, 20% have a hit.
Answer with a number only, understood to be in %.

## Input Give reported growth for CN1CCc2c(Sc3ccc(C(=O)NO)cc3)c3ccccc3n2C1 (SN12C renal)
## Output 59.4

## Input Give reported growth for O=c1ccc2ccccc2o1 (SN12C renal)
## Output 109

## Input Give reported growth for COc1cc(C2C3=C(COC3=O)N(CCO)c3cc4c(cc32)OCO4)cc(OC)c1O (stereo unspecified) (SN12C renal)
## Output 52.7

## Input Give reported growth for c1ccc(-c2n(Cc3ccc4ccccc4n3)c3ccccc3[n+]2Cc2ccc3ccccc3n2)cc1 (SN12C renal)
## Output 2.63

## Input Give reported growth for COc1ccc(/C=N/OCC(O)CNCc2ccccc2)cc1OC1CCCC1 (stereo unspecified) (SN12C renal)
## Output 99.9

## Input Give reported growth for CCN1C(=O)C2(Nc3ccccc3S2)c2cc(C)ccc21 (stereo unspecified) (SN12C renal)
## Output 97.7

## Input Give reported growth for N#CCCN1CCN(CCC#N)C1=S (SN12C renal)
## Output 95.2

## Input Give reported growth for Fc1ccccc1Nc1ccc2nnc(-c3ccncc3)n2n1 (SN12C renal)
## Output 103

## Input Give reported growth for N#Cc1c(-c2cccc(F)c2)cc(-c2ccc(Br)s2)[nH]c1=O (SN12C renal)
## Output 92.4

## Input Give reported growth for COc1ccc(OC)c(C2C(C#N)=C(N)Oc3cc(O)ccc32)c1 (stereo unspecified) (SN12C renal)
## Output 98

## Input Give reported growth for O=S(=O)(OCCO)c1ccccc1 (SN12C renal)
## Output 96.2

## Input Give reported growth for Cc1ccc(-c2c3c(N)c4c(nc3nc3c2c(C)nn3-c2ccccc2)CCCC4)cc1 (SN12C renal)
## Output 99.8

## Input Give reported growth for CCOC(=O)C1=C(C)N2C(=NC3=C(CCCC/C3=C\c3cc(OC)c(OC)c(OC)c3)C2c2cc(OC)c(OC)c(OC)c2)S1 (stereo unspecified) (SN12C renal)
## Output 75.2

## Input Give reported growth for COc1cccc2c(=O)c3c(sc12)c(NCCN(C)C)nc1ccccc13 (SN12C renal)
## Output 34.9

## Input Give reported growth for CCCCC1COc2cccc3c(SCC(=O)N(C)c4cccc5ccccc45)cc[n+]1c23 (stereo unspecified) (SN12C renal)
## Output 98.7

## Input Give reported growth for Cc1cc(=O)[nH]n1-c1cc(Cl)ccc1N (SN12C renal)
## Output 110

## Input Give reported growth for Cc1nc2cc(Nc3nc(Nc4ccc(F)cc4)nc(-c4ccc(Cl)cc4)n3)ccc2n1Cc1ccccc1 (SN12C renal)
## Output 77.1

## Input Give reported growth for Cc1ccc2c(N/N=C\c3ccco3)cc(C)nc2n1 (SN12C renal)
## Output 77.2

## Input Give reported growth for O=S(=O)(Nc1ccccc1Cl)c1ccc(-c2cnc(C3CC3)o2)cc1 (SN12C renal)
## Output 48.3

## Input Give reported growth for Nc1c(Br)cc(Br)cc1-c1n[nH]c(=O)[nH]c1=O (SN12C renal)
## Output 109

## Input Give reported growth for COc1ccc(/C=C2\SC(=O)N(CN3CCN(c4cc5c(cc4F)c(=O)c(C(=O)O)cn5C4CC4)CC3)C2=O)cc1 (SN12C renal)
## Output 108

## Input Give reported growth for O=C1/C(=C/c2ccc([N+](=O)[O-])cc2)Oc2ccc(O)cc21 (SN12C renal)
## Output 85.8

## Input Give reported growth for FC(F)(F)Oc1ccc2c(c1)C[C@H]1C[C@@H](c3ccoc3)N2O1 (SN12C renal)
## Output 110

## Input Give reported growth for Cn1cc(C(=O)NCCC(=N)N)cc1NC(=O)CN=C(N)N (SN12C renal)
## Output 95.6

## Input Give reported growth for CC1(C)CC(=O)C2=C(C1)Nc1cc3c(cc1C2c1ccc(F)cc1)OCO3 (stereo unspecified) (SN12C renal)
## Output 106

## Input Give reported growth for COc1cc(-c2nc(Nc3nc4ccccc4[nH]3)nc(N)c2C#N)cc(OC)c1OC (SN12C renal)
## Output 92.8

## Input Give reported growth for CS(=O)(=O)Nc1cccc(C(=O)NCc2ccc(N3CCOCC3)cc2)c1 (SN12C renal)
## Output 107

## Input Give reported growth for O=C1C=CC(=O)N1CCCCCCCCCCN1C(=O)C=CC1=O (SN12C renal)
## Output 94.8

## Input Give reported growth for NC(=O)c1cc(Cl)ccc1NC(=O)COc1ccccc1 (SN12C renal)
## Output 64.3

## Input Give reported growth for COc1cccc(OC(=O)c2ccccc2)c1OC(=O)c1ccccc1 (SN12C renal)
## Output 76.7

## Input Give reported growth for O=C1N/C(=C\c2ccccc2)c2ncccc21 (SN12C renal)
## Output 100

## Input Give reported growth for Cc1ccc(S(=O)(=O)N2C/C(=C\c3cc(F)cc(F)c3)C(=O)/C(=C/c3cc(F)cc(F)c3)C2)cc1 (SN12C renal)
## Output -73.9

## Input Give reported growth for CCCCC/C=C\C/C=C/CCCCCCCCNC(=O)Nc1ccc([N+](=O)[O-])cc1 (SN12C renal)
## Output 83.2

## Input Give reported growth for COc1ccccc1/C=C/C(=O)/C=C/c1ccccc1O (SN12C renal)
## Output -18.7

## Input Give reported growth for CC1SC(c2cccc(Oc3ccccc3)c2)N(CCc2cccs2)C1=O (stereo unspecified) (SN12C renal)
## Output -86.3

## Input Give reported growth for C=C[C@H]1C[C@@H]2C[C@@H]3[C@H]4C/C=C\C(=O)NCCCC5NC(=O)C(=C(O)/C=C/[C@@H]4CC(=O)[C@H]3[C@@H]2[C@H]1C)C5=O (stereo partly specified) (SN12C renal)
## Output -60.7

---

test system: MDA-MB-231 breast; test: NCI-60 one-dose screen, 48 h; conditions: 10 µM unless noted
This is part of a sample that, as a whole, favours compounds with a hit. Of some 83,000 tested, about 20% had one in any assay. The source made the active and inactive calls. How the source made its calls: active means growth percent below 10; inactive means the rest.
Parameter call: string, one of active, inactive

## Input So what was the verdict on COc1cc2cc(Oc3ccc(NC(=O)Nc4ccc(Cl)c(C(F)(F)F)c4)cc3)c(C)nc2cc1OCCN1CCCCC1 in this test?
## Output active

## Input So what was the verdict on O=C(CCc1nnc2sc(-c3ccccc3)nn12)c1nc2ccccc2[nH]1 in this test?
## Output inactive

## Input So what was the verdict on O=C1C(OCCOc2ccccc2)=C(OCCOc2ccccc2)C(=O)c2ccccc21 in this test?
## Output inactive

## Input So what was the verdict on COc1cc(C2C3=C(COC3=O)N(CCO)c3cc4c(cc32)OCO4)cc(OC)c1O (stereo not drawn) in this test?
## Output inactive

## Input So what was the verdict on CCOC(=O)c1[nH]c2cc(Cl)ccc2c1[C@@H](C(=O)NC(C)(C)C)N(CC)C(=O)CCCCC#Cc1cccc2c1CN(C1CCC(=O)NC1=O)C2=O (stereo partly drawn) in this test?
## Output active

## Input So what was the verdict on CCN1CCN(C(=S)SCC(=O)Nc2nc3ccc(OC)cc3s2)CC1 in this test?
## Output inactive

## Input So what was the verdict on FC(F)(F)c1cc(CNc2nc(Cl)ncc2Br)cc(C(F)(F)F)c1 in this test?
## Output inactive

## Input So what was the verdict on COC(=O)c1c2c(c(C)[n+]([O-])c1C)C(=O)C(NCc1ccc(O)cc1)=CC2=O in this test?
## Output active
